meta.source: patent US6020366A

- System name: MMP-3 (stromelysin) (Homo sapiens)
- Sequence (P08254 100-477): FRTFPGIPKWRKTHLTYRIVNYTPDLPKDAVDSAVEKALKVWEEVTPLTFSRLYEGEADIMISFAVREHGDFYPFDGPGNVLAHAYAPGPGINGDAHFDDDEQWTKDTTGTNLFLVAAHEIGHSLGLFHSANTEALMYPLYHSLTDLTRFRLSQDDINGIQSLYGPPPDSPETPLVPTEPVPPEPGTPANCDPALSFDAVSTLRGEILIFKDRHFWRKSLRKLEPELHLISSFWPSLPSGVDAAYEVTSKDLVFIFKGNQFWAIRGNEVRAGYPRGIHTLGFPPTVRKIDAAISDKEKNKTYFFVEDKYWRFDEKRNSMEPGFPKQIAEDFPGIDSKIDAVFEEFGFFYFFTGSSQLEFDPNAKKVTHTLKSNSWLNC
- Measurement description: inhibition of MMP-3 hydrolysis of thiopeptolide substrate
- Assay type: biochemical
- Condition parameters: thiopeptolide substrate, pH 6.0, 22° C.; read-out: (IC50) MMP-3
pIC50: −log10 of the molar value.

Molecule: O=C(CC(NC(=O)C1CC1)C(=O)O)c1ccc2oc3ccccc3c2c1 (stereo not drawn) [Example 38]
pIC50: 6.07
//
Molecule: Cc1ccc(S(=O)(=O)N[C@@H](CC(=O)c2ccc3oc4ccccc4c3c2)C(=O)O)cc1 [Example 14]
pIC50: 6.59
//
Molecule: O=C(CC(NC(=O)c1c(F)c(F)c(F)c(F)c1F)C(=O)O)c1ccc2oc3ccccc3c2c1 (stereo not drawn) [Example 40]
pIC50: 4.55
//
Molecule: COc1ccc(C(=O)NC(CC(=O)c2ccc3oc4ccccc4c3c2)C(=O)O)cc1OC (stereo not drawn) [Example 47]
pIC50: 6.06
//
Molecule: O=C(C=Cc1ccccc1)NC(CC(=O)c1ccc2oc3ccccc3c2c1)C(=O)O (stereo not drawn) [Example 25]
pIC50: 6.10
//
Molecule: O=C(CC(NC(=O)c1ccco1)C(=O)O)c1ccc2oc3ccccc3c2c1 (stereo not drawn) [Example 41]
pIC50: 5.82
//
Molecule: CCC(C(=O)NC(CC(=O)c1ccc2oc3ccccc3c2c1)C(=O)O)c1ccccc1 (stereo not drawn) [Example 54]
pIC50: 6.60
//
Molecule: O=C(CC(NC(=O)c1ccc2ccccc2c1)C(=O)O)c1ccc2oc3ccccc3c2c1 (stereo not drawn) [Example 22]
pIC50: 5.16
//
Molecule: Cc1ccc(C(=O)NC(CC(=O)c2ccc3oc4ccccc4c3c2)C(=O)O)cc1 (stereo not drawn) [Example 29]
pIC50: 6.41
